Exercise: for every item that follows, state its recorded Activity.
Test system: Pseudoperonospora cubensis
ASSAY EXPLANATION: Fungicidal activity against Pseudoperonospora cubensis assessed as cucumber downy mildew disease control at 125 ppm foliar application 24 hr before inoculation on upper surface of leaf by preventive manner
Format: functional
Answers are plain numbers, in %.

CNC(=O)/C(=N/OC)c1ccccc1Oc1ccc(OC)cc1 | 70

In the following, a different molecule is considered.
// sample CNC(=O)/C(=N/OC)c1ccccc1Sc1ccccc1 , its Activity was 70

----------
Tested on: Thanatephorus cucumeris
ASSAY EXPLANATION: Fungicidal activity against Thanatephorus cucumeris assessed as rice sheath blight disease control at 31.3 ppm foliar application for 24 hr before inoculation at 26 +- 2 measured after 5 days by preventive manner
Assay type: functional
OBSERVABLE: Activity

Need Activity for each of these compounds.
1. CNC(=O)/C(=N/OC)c1ccccc1/C=C\c1ccccc1
2. CCNC(=O)/C(=N/OC)c1ccccc1Oc1ccccc1
3. CNC(=O)/C(=N/OC)c1ccccc1/C=C/c1ccccc1
4. CNC(=O)/C(=N/OC)c1ccccc1NCc1ccccc1

[A]
1: 70%; 2: 70%; 3: <70%; 4: <70%

Need Activity for each of these compounds.
1. CNC(=O)/C(=N/OC)c1ccccc1Oc1ccc([Si](C)(C)C)cc1
2. CNC(=O)/C(=N\OC)c1ccccc1Oc1ccccc1
3. CNC(=O)/C(=N/OC)c1ccccc1COc1ccccc1

[A]
<70%
0%
<70%

Need Activity for each of these compounds.
1. CNC(=O)/C(=N/OC)c1ccccc1SCc1ccccc1
2. CNC(=O)/C(=N/OC(C)C)c1ccccc1Oc1ccccc1
3. CNC(=O)/C(=N/OC)c1ccccc1OCc1ccccc1
4. CNC(=O)/C(=N/OC)c1ccccc1C(=O)c1ccccc1
5. CNC(=O)/C(=N/OC)c1cc(C(F)(F)F)ccc1Oc1ccccc1

[A]
1. 70%
2. <70%
3. 70%
4. <70%
5. <70%

----------
System: Pseudoperonospora cubensis
ASSAY EXPLANATION: Fungicidal activity against Pseudoperonospora cubensis assessed as cucumber downy mildew disease control at 7.8 ppm foliar application 24 hr before inoculation on upper surface of leaf by preventive manner
Assay type: functional
OBSERVABLE: Activity

Consider the following illustrative entries.
CNC(=O)/C(=N/OC)c1ccccc1Oc1ccc([N+](=O)[O-])cc1 | <70%
CNC(=O)/C(=N/OC)c1ccccc1Oc1ccccc1 [METOMINOSTROBIN] | 30%
CNC(=O)/C(=N/OC)c1cc(C)ccc1Oc1ccccc1 | 70%
CNC(=O)/C(=N/OC)c1ccccc1C(=O)Oc1ccccc1 | <70%
CNC(=O)/C(=N/OC)c1ccccc1Oc1ccc(OCc2ccccc2)cc1 | <70%
C#CCOc1cccc(Oc2ccccc2/C(=N\OC)C(=O)NC)c1 | 70%
CNC(=O)/C(=N/OC)c1cccc([N+](=O)[O-])c1Oc1ccccc1 | <70%
CNC(=O)/C(=N/OC)c1ccccc1Oc1ccc(C)cc1 | <70%
CNC(=O)/C(=N/OC)c1ccccc1Oc1ccc(Oc2ccccc2)cc1 | <70%
CNC(=O)/C(=N/OC)c1ccccc1Oc1ccc([Si](C)(C)C)cc1 | <70%

Need Activity for each of these molecules.
1. CNC(=O)/C(=N/OC)c1ccccc1Oc1ccc(Br)cc1
2. CNC(=O)/C(=N/OC)c1ccccc1/C=C/c1ccccc1
3. CNC(=O)/C(=N/OC)c1ccccc1Oc1cccc(OC)c1
4. CNC(=O)/C(=N/OC)c1ccccc1Oc1ccc(Cl)cc1
5. CCNC(=O)/C(=N/OC)c1ccccc1Oc1ccccc1
6. CNC(=O)/C(=N/OC)c1cc(C(F)(F)F)ccc1Oc1ccccc1

[A]
["<70%", "70%", "70%", "70%", "<70%", "<70%"]

Need Activity for each of these molecules.
1. CNC(=O)/C(=N/OC)c1ccccc1OCc1ccccc1
2. CNC(=O)/C(=N/OC)c1ccccc1Oc1ccccc1[N+](=O)[O-]
3. CO/N=C(/C(=O)N(C)C)c1ccccc1Oc1ccccc1

[A]
1. 70%
2. <70%
3. <70%

Need Activity for each of these molecules.
1. CNC(=O)/C(=N/OC)c1ccccc1Oc1cccc(C)c1
2. CNC(=O)/C(=N/OC)c1ccc(Oc2ccccc2)cc1
3. CNC(=O)/C(=N/OC)c1cccc(Oc2ccccc2)c1
4. CNC(=O)/C(=N/OC)c1ccccc1C(=O)c1ccccc1
5. CNC(=O)/C(=N/OC(C)C)c1ccccc1Oc1ccccc1

[A]
1: 70%; 2: <70%; 3: <70%; 4: <70%; 5: <70%

Need Activity for each of these molecules.
1. C=CCOc1cccc(Oc2ccccc2/C(=N\OC)C(=O)NC)c1
2. CNC(=O)/C(=N/O)c1ccccc1Oc1ccccc1
3. CNC(=O)/C(=N/OC)c1ccccc1Oc1ccccc1C
4. CNC(=O)/C(=N/OC)c1cc([Si](C)(C)C)ccc1Oc1ccccc1
5. CNC(=O)/C(=N/OC)c1ccccc1Oc1ccc(Cl)c(Cl)c1
6. CNC(=O)/C(=N/OC)c1ccccc1Sc1ccccc1
7. CNC(=O)/C(=N\OC)c1ccccc1Oc1ccccc1
8. CNC(=O)/C(=N/OC)c1c(OC)cccc1Oc1ccccc1

[A]
1: 70%; 2: <70%; 3: <70%; 4: <70%; 5: 70%; 6: 70%; 7: 0%; 8: <70%

----------
Tested on: Pseudoperonospora cubensis
ASSAY EXPLANATION: Fungicidal activity against Pseudoperonospora cubensis assessed as cucumber downy mildew disease control at 125 ppm foliar application 24 hr before inoculation on upper surface of leaf by preventive manner
Assay type: functional
Exercise: for every item that follows, state its recorded Activity.

Consider the following illustrative entries.
CNC(=O)/C(=N/OC)c1cc([Si](C)(C)C)ccc1Oc1ccccc1 | <70%
CNC(=O)/C(=N/OC)c1ccccc1Oc1ccc([Si](C)(C)C)cc1 | <70%

// sample CNC(=O)/C(=N/OC)c1ccccc1NCc1ccccc1 , its Activity was <70%

----------
System: Pseudoperonospora cubensis
ASSAY EXPLANATION: Fungicidal activity against Pseudoperonospora cubensis assessed as cucumber downy mildew disease control at 7.8 ppm foliar application 24 hr before inoculation on upper surface of leaf by preventive manner
Type: functional
Exercise: for every item that follows, state its recorded Activity.

Need Activity for each of these compounds.
1. CNC(=O)/C(=N/OC)c1ccccc1SCc1ccccc1
2. CNC(=O)/C(=N/OC)c1ccccc1Oc1ccc(C(C)C)cc1

[A]
1. 70%
2. 70%

----------
Exercise: for every item that follows, state its recorded Activity.
Test system: Pseudoperonospora cubensis
ASSAY EXPLANATION: Fungicidal activity against Pseudoperonospora cubensis assessed as cucumber downy mildew disease control at 7.8 ppm foliar application 24 hr before inoculation on upper surface of leaf by preventive manner
Format: functional

Consider the following illustrative entries.
CCO/N=C(/C(=O)NC)c1ccccc1Oc1ccccc1 | <70%
CNC(=O)/C(=N/OC)c1ccccc1Oc1ccc(C(C)C)cc1C(C)C | <70%
CNC(=O)/C(=N/OC)c1cc([N+](=O)[O-])ccc1Oc1ccccc1 | <70%

Need Activity for each of these compounds.
1. CO/N=C(/C(N)=O)c1ccccc1Oc1ccccc1
2. CNC(=O)/C(=N/OC)c1ccccc1Oc1ccc(C(C)(C)C)cc1
3. CNC(=O)/C(=N/OC)c1ccccc1Oc1ccc(I)cc1

[A]
["<70%", "<70%", "70%"]
